This collection of values is drawn from PubChem BioAssay (NCI).

ASSAY METHOD TEXT: NCI Yeast Anticancer Drug Screen. Data for the mec2-1 strain (AID 157)
TEST CONTEXT: S. cerevisiae mec2-1 strain, at 100.0 µM
Compounds without any hit were thinned out: in the full panel of roughly 79,000, 15% have a hit. Calls of active or inactive are those of the source. Rule as the data show it: active = growth inhibition above about 70%; inactive = the rest.
Field 'call' accepts true (1) = active, false (0) = inactive

Input line: What did this assay record as the result for COCCOC(=O)CCn1cc(F)c(=O)[nH]c1=O ?
Output line: true (1)

Input line: Answer briefly: the call reported for O=C(Cc1csc2[n+]1C(=O)/C(=C/c1ccc(Cl)cc1)S2)Nc1ccccc1 in this assay.
Output line: false (0)

Input line: In this assay, the call recorded for CN(Cc1cnc2nc(N)nc(N)c2n1)c1ccc(C(=O)N[C@@H](CCC(=O)O)C(=O)O)cc1 was what?
Output line: true (1)

Input line: Could you check what this test reported for CN1Cc2ccccc2/C=C\c2ccccc21 ?
Output line: false (0)

Input line: # outcome recorded in this test, key = CCOC(=O)C(NC(=O)c1ccccc1)(N1CCN(c2cc3c(cc2F)c(=O)c(C(=O)O)cn3C2CC2)CC1)C(F)(F)F (stereo not drawn)
Output line: false (0)

Input line: Dear all, I need the recorded test outcome for O=C(O)C1CCCCC1c1c2ccc(=O)c(O)c-2oc2c(O)c(O)ccc12 (stereo not drawn) , thank you.
Output line: true (1)

Input line: Assay outcome for COc1cc2c(cc1[N+](=O)[O-])C(=O)C(Br)(Br)CCC2 : what was it?
Output line: true (1)

Input line: # lookup: test call for CC1=C(C)Cc2c(O)ccc(O)c2C1
Output line: false (0)

Input line: Outcome logged for OC1(c2ccccc2)CSC2=Nc3ccccc3C3CCN1N23 (stereo not drawn) in this assay:
Output line: true (1)

Input line: Any idea what this test logged for COc1ccc(/C(C)=N/OC(=O)c2c(-c3ccccc3Cl)noc2C)cc1CN1CCOCC1 ?
Output line: false (0)

Input line: Dear colleague, could you share the recorded outcome for Cc1ccc(Cl)c2[nH]c(-c3ccccc3)cc(=O)c12 when you have a moment?
Output line: false (0)

Input line: What did this assay record as the result for Cc1cc(N=Nc2ccc(S(=O)(=O)[O-])cc2)cc(C(=O)[O-])c1[O-].NC1CCCCC1N.[Na+].[Pt+4] ?
Output line: true (1)

Input line: Which outcome did this test record for the compound CN(N=O)N1C(=O)SCC(c2ccccc2)(c2ccccc2)C1=O ?
Output line: false (0)

Input line: Field: outcome | Entry: COc1ccc(OC)c2cc3ccccc3cc12
Output line: false (0)

Input line: So what was the verdict on CC[n+]1ccc2c(C)c3[nH]c4ccc(O)cc4c3c(C)c2c1 in this test?
Output line: false (0)

Input line: Status in this test for CCCCCCCCCCCCCCCCCCOCC(O)COP(=O)(O)OCC1OC(n2cc(F)c(=O)[nH]c2=O)CC1O (stereo not drawn) ?
Output line: true (1)

Input line: Write down the call the test reported for this compound. Item: S=c1[nH]nc(Nc2ccc(Cl)cc2)s1
Output line: true (1)

Input line: Check the results log: what was the call for CCOc1ccc2c(c1)c(CC(=O)O)cn2C ?
Output line: false (0)

Input line: Query: recorded result category for CCCCCCCCCCC1CCC(=O)O1 (stereo not drawn) in this test
Output line: true (1)

Input line: Outcome logged for CCc1ccc(NS(=O)(=O)c2ccccc2)c([N+](=O)[O-])c1 in this assay:
Output line: true (1)

Input line: Recorded test call requested for O=[N+]([O-])c1cc(CCl)ccc1CCl
Output line: true (1)

Input line: Returns: the outcome recorded for Cc1[nH]c2ccccc2c1C(c1ccc(N)cc1)c1c(C)[nH]c2ccccc12 in this assay.
Output line: false (0)

Input line: Which outcome was entered for the compound CC(C)/C(Cl)=N\OC(=O)Nc1ccc(F)cc1 in this test?
Output line: true (1)
